test system: P. aeruginosa strain PAO1; experiment: Static biofilm inhibition assay (crystal violet), PAO1; type: cell-based, Pseudomonas aeruginosa; settings: Pseudomonas aeruginosa, PAO1
Counter-ions that a name gives are not always drawn.
Record form. Attribute: inhibition at 500 µM. Fill in for each entry.

Consider the reported inhibition at 500 µM for these molecules:
Cl.Nc1nc(CCCNC(=O)c2ccc[nH]2)c[nH]1 [Compound 17, hydrochloride] ... < 10%
Cn1c(C(=O)NCCC=C2NC(N)=NC2=O)cc(Br)c1Br [Compound 32, hydrochloride, reference compound] ... < 20%

Looking up Cl.Cn1c(C(=O)NCCCc2c[nH]c(N)n2)cc(Br)c1Br [Compound 23, hydrochloride] , I found its inhibition at 500 µM recorded as > 95%
